All values here come from patent US11479587B2.

- Assay Protocol: Hemolysis assay
- Assay type: cell-based
- Cond: human, washed erythrocytes from EDTA-blood, pH 7.4
Residues, ends and D or L forms follow the SMILES beside them.
Property Label: HC50 at 1 h

Compound	HC50 at 1 h
CCCCCCCCCCCCCCCC(=O)N[C@@H](CO)C(=O)N[C@@H](Cc1c[nH]cn1)C(=O)N[C@@H](Cc1c[nH]cn1)C(=O)N[C@@H](CCCNC(=N)N)C(=O)N[C@@H](CS)C(=O)N[C@@H](CS)C(=O)N[C@@H](CCCNC(=N)N)C(=O)N[C@@H](CO)C(=O)N[C@@H](Cc1c[nH]cn1)C(=O)N[C@@H](CCCNC(=N)N)C(=O)N[C@@H](CS)C(=O)N[C@@H](CCCNC(=N)N)C(=O)N[C@@H](CCCNC(=N)N)C(=O)O [Pal-LCE3B56-68] (HELM PEPTIDE1{[CCCCCCCCCCCCCCCC(=O)[*:2]].S.H.H.R.C.C.R.S.H.R.C.R.R}$$$$V2.0)	> 78 µM

// query Answer with reported HC50 at 1 h of N=C(N)NCCC[C@H](NC(=O)[C@H](CCCNC(=N)N)NC(=O)[C@H](CS)NC(=O)[C@H](CCCNC(=N)N)NC(=O)[C@H](Cc1c[nH]cn1)NC(=O)[C@H](CO)NC(=O)[C@H](CCCNC(=N)N)NC(=O)[C@H](CS)NC(=O)[C@H](CS)NC(=O)[C@H](CCCNC(=N)N)NC(=O)[C@H](Cc1c[nH]cn1)NC(=O)[C@H](Cc1c[nH]cn1)NC(=O)[C@@H](N)CO)C(=O)O [LCE3B56-68] (H-SHHRCCRSHRCRR-OH; N-terminus and C-terminus assumed)
// result > 113 µM
